Consider the following molecules and their measured pKd readings.
assaySystem: LecA (Pseudomonas aeruginosa)
Construct: made in house; host or cells: E. coli BL21 (DE3), plasmid pET25pa11
testSummary: biochemical
Format: binding
protocolConditions: KD, ITC, 25 °C, 20% DMSO, average of three titrations
The meaning of pKd here: minus log10 of the concentration in molar units.

O=C(c1cc(O)c(O)c([N+](=O)[O-])c1)c1c(F)cccc1F	4.82

Q. Return the recorded pKd value; entry: `Cc1ccc(C(=O)c2cc([N+](=O)[O-])c(O)c(O)c2Cl)cc1`
A. 4.92

---

assaySystem: LecA (Pseudomonas aeruginosa, UniProt Q05097)
Construct: made in house; host or cells: E. coli BL21 (DE3), plasmid pET25pa11
Sequence (Q05097 whole entry): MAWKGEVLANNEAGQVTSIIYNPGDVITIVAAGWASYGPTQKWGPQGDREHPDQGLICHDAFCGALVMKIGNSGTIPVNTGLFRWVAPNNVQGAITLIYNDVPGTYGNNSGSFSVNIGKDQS
testSummary: biochemical
Assay type: binding
protocolConditions: IC50, extended dose-response analysis, 20% DMSO, no 2-mercaptoethanol, three experiments
Flag rule - IC50 less than 200 µM flags 1; the remaining entries get 0.

Please review the following examples before continuing.
O=C(c1cc(O)c(O)c([N+](=O)[O-])c1)c1ccccc1Cl	1
CCCCCOC(=O)c1ccc(C(=O)c2cc(O)c(O)c([N+](=O)[O-])c2)cc1	1
O=C(OCc1ccccc1)c1ccc(C(=O)c2cc(O)c(O)c([N+](=O)[O-])c2)cc1	1
O=C(c1cc(O)c(O)c([N+](=O)[O-])c1)c1ccccc1C(F)(F)F	1
COCCOCc1ccc(C(=O)c2cc(O)c(O)c([N+](=O)[O-])c2)cc1	0
CCOC(=O)c1cccc(C(=O)c2cc(O)c(O)c([N+](=O)[O-])c2)c1	0
Cc1c(C(=O)c2cc(O)c(O)c([N+](=O)[O-])c2)[nH]c2ccccc12	0

Moving on to the next compound.
Q. Determine if `CCN(CC)C(=O)c1ccc(C(=O)c2cc(O)c(O)c([N+](=O)[O-])c2)cc1` shows IC50 strictly lower than 200 µM.
A. 0

---

assaySystem: LecA (Pseudomonas aeruginosa)
Construct: made in house; host or cells: E. coli BL21 (DE3), plasmid pET25pa11
testSummary: Library screening using the FP competitive binding assay (three concentrations)
protocolConditions: read-out: Activity [%] (% inhibition relative to 500 µM pNPGal)
Consider the following compounds and their measured inhibition at 100 µM readings.
// units = %; emit number, no label

Cc1ccc(C(=O)c2cc(O)c(O)c(C(=O)O)c2)cc1 [compound 9]	2.1
Cc1ccc(C(=O)c2cc(O)c(O)c(C(N)=O)c2)cc1 [compound 11]	21.8
Cc1ccc(C(=O)c2cc(O)c(O)c(-c3nc(C)no3)c2)cc1 [compound 13]	57.7
Cc1noc(-c2cc(O)c(O)c([N+](=O)[O-])c2)n1 [compound 16]	9.4
CC(=O)Nc1cc(C(=O)c2ccc(C)cc2)cc(O)c1O [compound 10]	20.1
Cc1ccc(C(=O)c2cc(O)c(O)c([N+](=O)[O-])c2)cc1 [compound 4, Tolcapone]	43.9
Cc1ccc(C(=O)c2cc([N+](=O)[O-])c(O)c(O)c2Cl)cc1 [compound 15]	96.7
CCCCOC(=O)c1cc(O)c(O)c([N+](=O)[O-])c1 [compound 21]	22.9

Consider the record given below.
Q. Find inhibition at 100 µM for O=C(NCc1ccccc1)c1cc(O)c(O)c([N+](=O)[O-])c1 [compound 23] on LecA (Pseudomonas aeruginosa) and write it down.
A. 26.6

---

assaySystem: LecA (Pseudomonas aeruginosa, UniProt Q05097)
Construct: made in house; host or cells: E. coli BL21 (DE3), plasmid pET25pa11
testSummary: Surface plasmon resonance (SPR) direct binding, steady-state affinity
attributeMeasured: Kd (µM)
// units = µM; emit number, no label

Q. Return the recorded Kd value; entry: Cc1ccc(C(=O)c2cc(O)c(O)c([N+](=O)[O-])c2)cc1 [compound 4, Tolcapone]
A. 181

---

Consider the following compounds and their measured IC50 readings.
assaySystem: LecA (Pseudomonas aeruginosa, UniProt Q05097)
Construct: made in house; host or cells: E. coli BL21 (DE3), plasmid pET25pa11
testSummary: biochemical
Format: binding
protocolConditions: IC50 in presence of 0.01% Triton X-100, FP assay, 0.01% Triton X-100, one replicate
// units = µM; emit number, no label

Solved entries:
CCCCCOC(=O)c1cccc(C(=O)c2cc(O)c(O)c([N+](=O)[O-])c2)c1	88
O=C(OCc1ccccc1)c1ccc(C(=O)c2cc(O)c(O)c([N+](=O)[O-])c2)cc1	17
C=CCOC(=O)c1ccc(C(=O)c2cc(O)c(O)c([N+](=O)[O-])c2)cc1	49

Q. Return the recorded IC50 value; entry: `Cc1c(C(=O)c2cc(O)c(O)c([N+](=O)[O-])c2)[nH]c2ccc(Br)cc12`
A. 59

Q. Return the recorded IC50 value; entry: `O=C(c1cc(O)c(O)c([N+](=O)[O-])c1)c1c(F)cccc1F`
A. 81

Q. Return the recorded IC50 value; entry: `Cc1ccc(C(=O)c2cc([N+](=O)[O-])c(O)c(O)c2Cl)cc1`
A. 67

---

assaySystem: LecA (Pseudomonas aeruginosa)
Construct: made in house; host or cells: E. coli BL21 (DE3), plasmid pET25pa11
testSummary: biochemical
Assay type: binding
protocolConditions: ITC, 25 °C, 20% DMSO, average of three titrations; read-out: KD
Experimental: Isothermal titration calorimetry was performed on a MicroCal PEAQ-ITC (Malvern Panalytical) at 25 °C and 750 rpm stirring. The cell was filled with LecA (75 - 111 µM) in TBS/Ca buffer (20 mM Tris, 147 mM NaCl, 2.6 mM KCl at pH 7.4 supplemented with 1 mM CaCl2) with 20% DMSO and titrated with ligand (0.75 mM or 1.5 mM, 19 injections) in the same buffer. Data were analysed using the one binding site model in the MicroCal PEAQ-ITC analysis software (Malvern Panalytical). […]
attributeMeasured: Kd (µM)
// units = µM; emit number, no label

Q. Return the recorded Kd value; entry: O=[N+]([O-])c1ccc(O[C@@H]2O[C@H](CO)[C@H](O)[C@H](O)[C@H]2O)cc1 [pNPGal, para‐nitrophenyl β‐D‐galactoside, reference compound]
A. 10.1

---

assaySystem: LecA (Pseudomonas aeruginosa, UniProt Q05097)
Construct: made in house; host or cells: E. coli BL21 (DE3), plasmid pET25pa11
testSummary: biochemical
Format: binding
protocolConditions: IC50, LecA inhibition, competitive binding assay (FP), tested up to 1.5 mM, n ≥ 2
Description: Therefore, we focused our attention on commercially available nitro‐catechols. Prominent derivatives are inhibitors of the enzyme catechol‐O‐methyltransferase (COMT) and approved drugs for the treatment of Parkinson's disease. Four commercial COMT inhibitors were thus evaluated in a previously reported competitive binding assay based on fluorescence polarisation (FP, Table 1, Figure 1).^[ [32] ^] The competitive binding assay was performed in analogy to Joachim et al.^[2] […]
attributeMeasured: pIC50
The meaning of pIC50 here: minus log10 of the concentration in molar units.

Cc1ccc(C(=O)c2cc(O)c(O)c([N+](=O)[O-])c2)cc1	3.59

Consider the record given below.
Q. Return the recorded pIC50 value; entry: Cc1c(Cl)c(C)[n+]([O-])c(Cl)c1-c1noc(-c2cc(O)c(O)c([N+](=O)[O-])c2)n1 [compound 3, Opicapone, reference compound]
A. 3.07

---

assaySystem: LecA (Pseudomonas aeruginosa)
Construct: made in house; host or cells: E. coli BL21 (DE3), plasmid pET25pa11
testSummary: Library screening using the FP competitive binding assay (three concentrations)
protocolConditions: read-out: Activity [%] (% inhibition relative to 500 µM pNPGal)
attributeMeasured: inhibition at 100 µM (%)
// units = %; emit number, no label

Solved entries:
O=C(c1cc(O)c(O)c([N+](=O)[O-])c1)C1CCCCC1	23.4
Cc1ccc(C(=O)c2ccc(O)c(O)c2)cc1	13.8
O=C(c1ccccc1)c1cc(O)c(O)c([N+](=O)[O-])c1	41.8

Q. Return the recorded inhibition at 100 µM value; entry: `O=C(c1cc(O)c(O)c([N+](=O)[O-])c1)N1CCCCC1`
A. 5

Q. Return the recorded inhibition at 100 µM value; entry: `O=C(Nc1ccc(F)cc1)c1cc(O)c(O)c([N+](=O)[O-])c1`
A. 8.7

Q. Return the recorded inhibition at 100 µM value; entry: `O=C(NC12CC3CC(CC(C3)C1)C2)c1cc(O)c(O)c([N+](=O)[O-])c1`
A. 10

Q. Return the recorded inhibition at 100 µM value; entry: `Cc1ccc(C(=O)c2cc(O)c(O)c(-c3nnn[nH]3)c2)cc1`
A. 0.8

Q. Return the recorded inhibition at 100 µM value; entry: `Cc1ccc(C(=O)c2cc(O)c(O)c(O)c2)cc1`
A. 7.5

Q. Return the recorded inhibition at 100 µM value; entry: `O=C(c1cc(O)c(O)c([N+](=O)[O-])c1)c1ncc[nH]1`
A. 16.8

Q. Return the recorded inhibition at 100 µM value; entry: `Cn1nc(-c2cc(O)c(O)c([N+](=O)[O-])c2)cc1O`
A. 1.9
